# MFI per record follows
# study.system: T1, human TIGIT on Jurkat cells (TIGIT/NFAT reporter Jurkat cells, BPS Bioscience #60538); Promega TIGIT Effector … (human, UniProt Q495A1 22-244)
# T1 construct: whole, on cells; Same protein on two bought Jurkat lines (flow cytometry: BPS; bioassay: Promega); also called hu TIGIT cells; cells expressing human TIGIT
# T1 sequence (looked up): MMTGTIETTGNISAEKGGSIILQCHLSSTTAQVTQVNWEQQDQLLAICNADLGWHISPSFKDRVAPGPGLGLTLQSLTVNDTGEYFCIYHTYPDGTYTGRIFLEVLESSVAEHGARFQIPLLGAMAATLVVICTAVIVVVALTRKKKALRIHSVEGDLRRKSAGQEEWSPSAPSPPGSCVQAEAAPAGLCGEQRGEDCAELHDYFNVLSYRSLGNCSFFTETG
# experimental.details: flow cytometry, TIGIT/NFAT Jurkat cells, 10 ug/ml

binder | MFI [MFI]
43586p2.F02 (scFv, V domains shown) VH: EVQLLESGGGLVQPGGSLRLSCAASGFTFDDYVMSWVRQAPGKGLEWVSLINWNGDKTYYADSVKGRFTISRDNSKNTLYLQMNSLRAEDTAVYYCARHWIVLQYGLDVWGQGTTVTVSS VL: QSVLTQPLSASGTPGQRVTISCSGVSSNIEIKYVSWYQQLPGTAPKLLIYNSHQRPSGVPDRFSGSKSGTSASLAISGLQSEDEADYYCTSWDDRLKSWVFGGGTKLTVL | 8960
43586p2.B03 (scFv, V domains shown) VH: EVQLLESGGGWVQPGGSLRLSCAASGFTFIDYWMSWVRQAPGKGLEWVSSISWIGDTTFYADSVKGRFTISRDSSLNTVYLQMNSLRAEDTAVYYCAKHWTVYQYGMDVWGQGTTVTVSS VL: QSVLTQPPSASGTPGQRVTISCSGGSSKIGSKYVHWYQQLPGTAPKLLIYKDDQRPSGVPDRFSGSKSGTSASLAISGLQSEDEADYYCAAWDDRVNAWVFGGGTKLTVL | 6110
43586p1.2.E6 (scFv, V domains shown) VH: EVQLLESGGGLVQPGGSLRLSCAASGFTVSDHYMSWVRQAPGKGLEWVSTTSSTSWKNYTYYADSVKGRFSISRDNSENTLYLQMNGLRAEDTAVYYCAKGSYGMDVWGQGTTVTVSS VL: QSVLTQPPSASGTPGQRVTISCSGSNFNIGTKYLYWYQQLPGTAPKLLIYLDSQRPSGVPDRFSTSKSGTSASLAISGLQSEDEADYYCALWDDHLHGWVFGGGTKLTVL | 10500
